target: hSK2 (Homo sapiens, UniProt Q9H2S1)
experiment_notes: 86Rb+ efflux assay for compound activity towards hSK channels
Format: cell-based
condition_summary: 86Rb+ efflux stimulated with calcium ionophore; drug 0.01 to 30 μM in EBSS; read-out: hSK2 Inhibitory Activity
Each entry below carries its recorded IC50.

Illustrative cases are given below, each with its answer.
# mol_smiles, reading
measured = [
    ("Cc1cc(I)cnc1Nc1nc(-c2ccccn2)cs1", "0.1 to 1 µM"),
    ("Cc1sc(Nc2ccccn2)nc1-c1ccccn1", "< 0.03 µM"),
    ("Brc1sc(Nc2ccccn2)nc1-c1ccccn1", "1 to 30 µM"),
]

Q: Provide the documented IC50 with hSK2 (Homo sapiens, UniProt Q9H2S1) as the system for Nc1ccc(Nc2nc(-c3nccs3)cs2)nc1
Ans: 0.03 to 0.1 µM

Q: Do the same for CC(C)(C)c1ccc(Nc2nc(-c3ccccn3)cs2)nc1 please
Ans: 1 to 30 µM

Q: # repeat for c1csc(-c2csc(Nc3ccc(N4CCOCC4)cn3)n2)n1
Ans: 0.1 to 1 µM

Q: Here is the next compound: Cc1ccnc(Nc2nc(-c3cnccn3)cs2)c1
Ans: 0.03 to 0.1 µM

Q: Next up: CC(C)c1ccc(Nc2nc(-c3ccccn3)cs2)nc1
Ans: 0.03 to 0.1 µM

Q: Follow-up entry: O=C1CCCN1c1ccc(Nc2nc(-c3nccs3)cs2)nc1
Ans: 0.03 to 0.1 µM

Where do these numbers come from? They come from patent US20050227989A1.
